Reference for the values: paper PMC12040169

Test: in vitro
Conditions: human, hela cells, % viability
The entries below are paired with their reported viability at 28.5 h, 10 µM.

compound	viability at 28.5 h, 10 µM
Cc1cccc(CN(CCN)C(=O)Nc2ccc(C(C)(C)C)cc2)n1 [CBK046230C]	96.4%
CC(=O)C(/N=N\c1ccc(S(=O)(=O)Nc2nccs2)cc1)C(=O)Nc1ccc(Cl)cc1 (stereo not shown)	86.8%
CC(C)Nc1nc2ccccc2nc1OCc1ccc(C2CC2C(=O)N(C)C)cc1 (stereo not shown)	92.5%
COc1cc(NC(=O)c2ccc(-c3cc4ccccc4oc3=O)cc2)ccc1NC(=O)C(C)C	103%

---

Test: in vitro
Conditions: human, hela cells, % viability

compound	viability at 28.5 h, 10 µM, %
C=CCn1c(SCC(=O)Nc2ccc(OC)cc2)nnc1-c1ccncc1	88.9
C[C@H](Cn1c(C(F)(F)F)cc2cccnc21)NC(=O)c1ccco1	91.5
CCCNc1nc(Cl)nc(NCc2cccnc2)n1	89
N#CCCN(CC1CCCO1)S(=O)(=O)c1ccc(OC(F)(F)F)cc1 (stereo not shown)	91.5
